- run.description: Pharmacokinetic evaluation in mice, oral administration
- Type: in vivo, Balb/c mice
- condition.set: male, Balb/c, mouse, in vivo, po, p.o. 5 mg/kg, plasma, single PK
measured.attribute: Tmax (h)
// return numeric value only (unit: h, not printed)

[in] Item under review: C#C[C@H]1C[C@]1(c1noc(=O)[nH]1)n1c(C(=O)N2CCc3nn(-c4cc(C)c(F)c(C)c4)c(-n4ccn(-c5ccc6c(cnn6C6CC6)c5F)c4=O)c3[C@@H]2C)cc2cc([C@H]3CCOC(C)(C)C3)ccc21 . Reported Tmax?
[out] 2

----------
- run.description: Pharmacokinetic evaluation in Macaca fascicularis monkeys, oral administration
- Assay type: in vivo
- condition.set: male, cynomolgus monkey, p.o. 5 mg/kg, plasma
measured.attribute: AUC(0-inf) (ng·h/mL)
// return numeric value only (unit: ng·h/mL, not printed)

[in] Item under review: C#C[C@H]1C[C@]1(c1noc(=O)[nH]1)n1c(C(=O)N2CCc3nn(-c4cc(C)c(F)c(C)c4)c(-n4ccn(-c5ccc6c(cnn6C6CC6)c5F)c4=O)c3[C@@H]2C)cc2cc([C@H]3CCOC(C)(C)C3)ccc21 [Example 143] . Reported AUC(0-inf)?
[out] 26200

----------
- run.description: Pharmacokinetic evaluation in beagles, oral administration
- Assay type: in vivo
- condition.set: dog, po, p.o. 2 mg/kg, plasma
// assign rule met if AUC(0-inf) falls strictly below 20000 ng·h/mL, else rule not met (ties count as rule not met)

These recorded examples may help you get a feel for the data.
compound="CC#C[C@H]1C[C@]1(c1noc(=O)[nH]1)n1c(C(=O)N2CCc3nn(-c4cc(C)c(F)c(C)c4)c(-n4ccn(-c5ccc6c(cnn6C6CC6)c5F)c4=O)c3[C@@H]2C)cc2cc([C@H]3CCOC(C)(C)C3)ccc21 [Example 144]" qualitative_label="rule met"
compound="[2H]C([2H])([2H])n1nc2c3c(c(-n4ccn(-c5c6c(nn5-c5cc(C)c(F)c(C)c5)CCN(C(=O)c5cc7cc([C@H]8CCOC(C)(C)C8)ccc7n5[C@@]5(c7noc(=O)[nH]7)C[C@@H]5C#C)[C@H]6C)c4=O)ccc31)OCCC2 [Example 287]" qualitative_label="rule met"
compound="[2H]C([2H])([2H])n1nc2c3c(c(-n4ccn(-c5c6c(nn5-c5cc(C)c(F)c(C)c5)CCN(C(=O)c5cc7cc([C@H]8CCOC(C)(C)C8)ccc7n5[C@@]5(c7noc(=O)[nH]7)C[C@@H]5C)[C@H]6C)c4=O)ccc31)OCCC2 [Example 282]" qualitative_label="rule met"
compound="Cc1cc(-n2nc3c(c2-n2ccn(-c4cc5c6c(c4)CCC(=O)N6CCC5)c2=O)[C@H](C)N(C(=O)c2cc4cc([C@H]5CCOC(C)(C)C5)ccc4n2[C@@]2(c4noc(=O)[nH]4)C[C@@H]2C)CC3)cc(C)c1F [Example 34]" qualitative_label="rule met"
compound="Cc1cc(-n2nc3c(c2-n2ccn(-c4ccc5c(cnn5C5CC5)c4F)c2=O)[C@H](C)N(C(=O)c2cc4cc([C@H]5CCOC(C)(C)C5)ccc4n2[C@@]2(c4noc(=O)[nH]4)C[C@@H]2COC2CC2)CC3)cc(C)c1F [Example 67]" qualitative_label="rule met"
compound="[2H]C([2H])(OC1CC1)[C@H]1C[C@]1(c1noc(=O)[nH]1)n1c(C(=O)N2CCc3nn(-c4cc(C)c(F)c(C)c4)c(-n4ccn(-c5ccc6c(cnn6C6CC6)c5F)c4=O)c3[C@@H]2C)cc2cc([C@H]3CCOC(C)(C)C3)ccc21 [Example 194]" qualitative_label="rule not met"

[in] Criterion: AUC(0-inf) strictly below 20000 ng·h/mL. Is it met by Cc1cc(-n2nc3c(c2-n2ccn(-c4ccc5c(cnn5C5CC5)c4F)c2=O)[C@H](C)N(C(=O)c2cc4cc([C@H]5CCOC(C)(C)C5)ccc4n2[C@@]2(c4noc(=O)[nH]4)[C@@H]4COC[C@@H]42)CC3)cc(C)c1F [Example 65-1] ?
[out] rule not met

----------
Listed next: entries and their corresponding Tmax.
- run.description: Pharmacokinetic evaluation in Macaca fascicularis monkeys, oral administration
- Type: in vivo
- condition.set: cynomolgus monkey, p.o. 5 mg/kg, plasma
// return numeric value only (unit: h, not printed)

[in] Item under review: [2H]C([2H])([2H])n1nc2c3c(c(-n4ccn(-c5c6c(nn5-c5cc(C)c(F)c(C)c5)CCN(C(=O)c5cc7cc([C@H]8CCOC(C)(C)C8)ccc7n5[C@@]5(c7noc(=O)[nH]7)C[C@@H]5C)[C@H]6C)c4=O)ccc31)OCCC2 . Reported Tmax?
[out] 4

[in] Item under review: Cc1cc(-n2nc3c(c2-n2ccn(-c4ccc5c(cnn5C5CC5)c4F)c2=O)[C@H](C)N(C(=O)c2cc4cc([C@H]5CCOC(C)(C)C5)ccc4n2[C@@]2(c4noc(=O)[nH]4)[C@@H]4COC[C@@H]42)CC3)cc(C)c1F . Reported Tmax?
[out] 2

----------
- run.description: Pharmacokinetic evaluation in rats, oral administration
- Design: species or system SD rats
- condition.set: rat, in vivo, p.o. 5 mg/kg, plasma
Listed next: entries and their corresponding AUC(0-inf).
// return numeric value only (unit: ng·h/mL, not printed)

A selection of reference data follows.
molecule="Cc1cc(-n2nc3c(c2-n2ccn(-c4ccc5c(cnn5C5CC5)c4F)c2=O)[C@H](C)N(C(=O)c2cc4cc([C@H]5CCOC(C)(C)C5)ccc4n2[C@@]2(c4noc(=O)[nH]4)C[C@@H]2C)CC3)cc(C)c1F [Example 25]" data_value=37300
molecule="[2H]C([2H])([2H])n1nc2c3c(c(-n4ccn(-c5c6c(nn5-c5cc(C)c(F)c(C)c5)CCN(C(=O)c5cc7cc([C@H]8CCOC(C)(C)C8)ccc7n5[C@@]5(c7noc(=O)[nH]7)C[C@@H]5C)[C@H]6C)c4=O)ccc31)OCCC2 [Example 282]" data_value=13900

Lab note: next molecule to report on.
[in] Item under review: Cc1cc(-n2nc3c(c2-n2ccn(-c4ccc5c6c(nn5C)CCCOc46)c2=O)[C@H](C)N(C(=O)c2cc4cc([C@H]5CCOC(C)(C)C5)ccc4n2[C@@]2(c4noc(=O)[nH]4)C[C@@H]2C)CC3)cc(C)c1F [Example 35] . Reported AUC(0-inf)?
[out] 14100

----------
- run.description: Pharmacokinetic evaluation in beagles, oral administration
- Type: in vivo
- condition.set: dog, po, p.o. 2 mg/kg, plasma, read-out: MRT 0-∞
Listed next: entries and their corresponding MRT inf.
// return numeric value only (unit: h, not printed)

A selection of reference data follows.
chem_smiles=Cc1cc(-n2nc3c(c2-n2ccn(-c4cc5c6c(c4)CCC(=O)N6CCC5)c2=O)[C@H](C)N(C(=O)c2cc4cc([C@H]5CCOC(C)(C)C5)ccc4n2[C@@]2(c4noc(=O)[nH]4)C[C@@H]2C)CC3)cc(C)c1F unit_label=h data_value=5.7
chem_smiles=Cc1cc(-n2nc3c(c2-n2ccn(-c4ccc5c(cnn5C5CC5)c4F)c2=O)[C@H](C)N(C(=O)c2cc4cc([C@H]5CCOC(C)(C)C5)ccc4n2[C@@]2(c4noc(=O)[nH]4)C[C@@H]2COC2CC2)CC3)cc(C)c1F unit_label=h data_value=5.7

Lab note: next molecule to report on.
[in] Item under review: Cc1cc(-n2nc3c(c2-n2ccn(-c4ccc5c(cnn5C5CC5)c4F)c2=O)[C@H](C)N(C(=O)c2cc4cc([C@H]5CCOC(C)(C)C5)ccc4n2[C@@]2(c4noc(=O)[nH]4)[C@@H]4COC[C@@H]42)CC3)cc(C)c1F . Reported MRT inf?
[out] 8.1

----------
Listed next: entries and their corresponding MRT inf.
- run.description: Pharmacokinetic evaluation in beagles, oral administration
- Format: in vivo
- condition.set: dog, po, p.o. 2 mg/kg, plasma, read-out: MRT 0-∞
Form entry: enter the amount, then its unit.

chem_smiles=[2H]C([2H])([2H])n1nc2c3c(c(-n4ccn(-c5c6c(nn5-c5cc(C)c(F)c(C)c5)CCN(C(=O)c5cc7cc([C@H]8CCOC(C)(C)C8)ccc7n5[C@@]5(c7noc(=O)[nH]7)C[C@@H]5C)[C@H]6C)c4=O)ccc31)OCCC2 measured_attribute="MRT inf" data_value="12.1 h"
chem_smiles=[2H]C([2H])([2H])n1nc2c3c(c(-n4ccn(-c5c6c(nn5-c5cc(C)c(F)c(C)c5)CCN(C(=O)c5cc7cc([C@H]8CCOC(C)(C)C8)ccc7n5[C@@]5(c7noc(=O)[nH]7)C[C@@H]5C#C)[C@H]6C)c4=O)ccc31)OCCC2 measured_attribute="MRT inf" data_value="6.1 h"
chem_smiles=[2H]C([2H])(OC1CC1)[C@H]1C[C@]1(c1noc(=O)[nH]1)n1c(C(=O)N2CCc3nn(-c4cc(C)c(F)c(C)c4)c(-n4ccn(-c5ccc6c(cnn6C6CC6)c5F)c4=O)c3[C@@H]2C)cc2cc([C@H]3CCOC(C)(C)C3)ccc21 measured_attribute="MRT inf" data_value="8.3 h"

Lab note: next compound to report on.
[in] Item under review: CC#C[C@H]1C[C@]1(c1noc(=O)[nH]1)n1c(C(=O)N2CCc3nn(-c4cc(C)c(F)c(C)c4)c(-n4ccn(-c5ccc6c(cnn6C6CC6)c5F)c4=O)c3[C@@H]2C)cc2cc([C@H]3CCOC(C)(C)C3)ccc21 . Reported MRT inf?
[out] 6.5 h
